# Test system: OVCAR-3 ovarian
# test: NCI-60 one-dose screen, 48 h (100 = growth as untreated, 0 = no growth, -100 = all killed)
# cond: 10 µM unless noted
# Procedure: Growth inhibition of the OVCAR-3 human tumor cell line is measured as a screen for anti-cancer activity. Cells are grown in 96 well plates and exposed to the test compound for 48 hours. Compounds are tested at a single concentration, which is 10^-5 M for most compounds. The reported endpoint is percent growth (GI% or GIPRCNT), where numbers from 0 - 100% represent growth inhibition, and numbers from -100% - 0 represent cell death. For example, a value of 40 represents 60% growth inhibition. […]
Compounds without any hit were thinned out: in the full panel of roughly 83,000, 20% have a hit.
metric: growth (%)
Please reply with the bare figure in % and do not write the unit itself.

Use these answered entries as a reference point.
# compound, growth, %
data = [
    ("COc1ccc(Nc2nc(NCCNc3ccnc4cc(Cl)ccc34)nc(N3CCOCC3)n2)cc1", 73.4),
    ("COc1ccc(-c2c3c(N)c4c(nc3nc3c2c(C)nn3-c2ccccc2)CCCC4)cc1", 88.8),
    ("COc1ccc(OC)c(C2C(C#N)=C(N)Oc3cc(O)ccc32)c1 (stereo not drawn)", 111),
]

# growth lookup, item O=C(N/N=C(\CS(=O)(=O)c1ccccc1)c1cc2cc(Br)ccc2oc1=O)c1ccccc1
108

Cn1c(=O)c2c(-c3ccccc3F)n(-c3ccc4c(c3)OCO4)cc2n(C)c1=O , same question.
114
